Test system: SF-539 CNS
protocol.text: NCI tumour cell line growth inhibition, 48 h
reported.endpoint: TGI (µM)
The answer is to be given in µM; state only the numeric part.

The molecule O=C(OCCBr)c1ccc(Cl)c([N+](=O)[O-])c1 showed TGI equal to 36

The molecule CCOC(=O)C1=C(Nc2cccc3ccccc23)OC/C1=N\NC(=O)c1ccccc1O showed TGI equal to 46.8

====

Test system: BT-549 breast
protocol.text: NCI tumour cell line growth inhibition, 48 h
Would you please tag the item Satisfied when its TGI is 20 µM or above, and Not satisfied when it is below?

Nc1n[nH]c2ccc([C@@H]3Nc4ccc5[nH]ncc5c4[C@H]4C5C=CC(C5)[C@@H]34)cc12 (stereo partly specified) | Not satisfied
COC(=O)CC(=O)Nc1sccc1S(=O)(=O)c1ccccc1 | Satisfied
O=C1/C(=C/c2c(Cl)[nH]c3ccccc23)c2ccccc2N1c1ccccc1 | Satisfied

Hi, just wondering whether O=C(CCCSc1nc(-c2ccccc2)cc(-c2ccc(Cl)cc2)n1)NO shows TGI of 20 µM or higher. Not satisfied

Hi, just wondering whether Cc1cc2nc(-c3c(F)cccc3F)n(Cc3c(F)cccc3F)c2cc1C shows TGI of 20 µM or higher. Satisfied

Hi, just wondering whether CCSc1nc(=[N+]2CCCC2)ss1 shows TGI of 20 µM or higher. Satisfied
